Tested on: Kluyveromyces lactis
Assay: Antifungal activity against Kluyveromyces lactis 2-18B with MATalpha metA1 ura3 leu2 genotype by agar dilution method
Format: functional
Examples of compounds with documented MIC follow.
REPORTED_PROPERTY: MIC

> print(dat)
                                   compound  reported.property      result
1        O=C(/C=C/c1ccc(Cl)cc1)c1ccc(Cl)cc1                MIC  > 40 µg/mL
2        COc1ccc(/C=C/C(=O)c2ccc(Cl)cc2)cc1                MIC  > 40 µg/mL
3  O=C(/C=C/c1cccc(O)c1)c1ccccc1 [3-HYDROXY CHALCONE]                MIC  < 20 µg/mL
4   CC(=O)Nc1ccc(/C=C/C(=O)c2ccc(Cl)cc2)cc1                MIC  > 40 µg/mL
5        O=C(/C=C/C=C/c1ccccc1)c1ccc(Cl)cc1                MIC  > 40 µg/mL
6         O=C(/C=C/c1ccc(O)cc1)c1ccc(Cl)cc1                MIC    35 µg/mL
7           COc1ccc(/C=C/C(=O)c2ccccc2)cc1O                MIC    25 µg/mL
8   COc1cc(/C=C/C(=O)c2ccc(Cl)cc2)cc(OC)c1O                MIC  > 40 µg/mL
9            O=C(/C=C/c1ccccc1)c1ccc(Cl)cc1                MIC  > 40 µg/mL

Hey, just so you know, these numbers are from ChEMBL document CHEMBL1158182.
